Source listed as patent US6699854B2.

# ASSAYED TARGET: CDK2/cyclin E (Homo sapiens, UniProt P24941)
# Construct: His; made in house; host or cells: Sf9 insect cells (baculovirus)
# ASSAY PROTOCOL: CDK2/cyclin E kinase assay (GST-Rb phosphorylation)
# Format: biochemical
# SETUP CONDITIONS: CDK2/cyclin E, Table 2, further results for CDK2/cyclin E inhibition
EXPERIMENTAL ENDPOINT: IC50 (µM)

{"STRUCTURE NOTATION": "Cc1nc(C)c(-c2ccnc(Nc3ccc(Cl)cc3)n2)s1", "ASSAYED TARGET": "CDK2/cyclin E (Homo sapiens, UniProt P24941)", "EXPERIMENTAL ENDPOINT": "IC50", "RESULT VALUE": 5}

----------
# ASSAYED TARGET: CDK1/cyclin B (Homo sapiens, UniProt P06493)
# Construct: His
# Sequence (P06493 whole entry, species assumed): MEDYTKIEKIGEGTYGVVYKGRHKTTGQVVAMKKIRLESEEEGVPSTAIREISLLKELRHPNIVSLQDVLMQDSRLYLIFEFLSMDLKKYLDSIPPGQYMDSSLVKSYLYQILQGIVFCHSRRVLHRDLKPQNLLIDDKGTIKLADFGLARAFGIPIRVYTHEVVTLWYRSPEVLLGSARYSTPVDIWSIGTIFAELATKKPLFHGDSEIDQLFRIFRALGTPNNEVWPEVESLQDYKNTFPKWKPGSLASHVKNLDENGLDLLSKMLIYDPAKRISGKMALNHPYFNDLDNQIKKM
# Sequence (P14635 whole entry partner, species assumed): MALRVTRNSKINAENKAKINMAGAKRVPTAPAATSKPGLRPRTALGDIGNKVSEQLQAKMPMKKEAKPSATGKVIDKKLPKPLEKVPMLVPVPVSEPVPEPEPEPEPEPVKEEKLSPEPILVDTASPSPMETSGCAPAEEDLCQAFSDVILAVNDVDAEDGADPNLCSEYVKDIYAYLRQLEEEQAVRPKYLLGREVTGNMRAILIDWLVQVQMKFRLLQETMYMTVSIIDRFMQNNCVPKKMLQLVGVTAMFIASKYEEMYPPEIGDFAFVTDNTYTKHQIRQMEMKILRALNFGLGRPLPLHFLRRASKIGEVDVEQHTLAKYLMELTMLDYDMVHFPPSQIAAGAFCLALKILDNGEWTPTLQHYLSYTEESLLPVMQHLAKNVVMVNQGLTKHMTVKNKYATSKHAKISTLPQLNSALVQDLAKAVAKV
# ASSAY PROTOCOL: CDK1/cyclin B kinase assay (GST-Rb phosphorylation)
# SETUP CONDITIONS: Table 1
pIC50: −log10 of the molar value.
EXPERIMENTAL ENDPOINT: pIC50

{"STRUCTURE NOTATION": "Cc1nc(C)c(-c2ccnc(Nc3ccc(F)cc3)n2)s1", "RELATION QUALIFIER": "=", "RESULT VALUE": 6.70}
{"STRUCTURE NOTATION": "Cc1nc(C)c(-c2ccnc(Nc3ccc(Cl)cc3)n2)s1", "RELATION QUALIFIER": "<", "RESULT VALUE": 4.70}
{"STRUCTURE NOTATION": "Cc1nc(C)c(-c2ccnc(Nc3cccc([N+](=O)[O-])c3)n2)s1", "RELATION QUALIFIER": "=", "RESULT VALUE": 7.00}

----------
# IC50 measurements, system: UniProtKB P28482
# Sequence (P28482 whole entry, species assumed): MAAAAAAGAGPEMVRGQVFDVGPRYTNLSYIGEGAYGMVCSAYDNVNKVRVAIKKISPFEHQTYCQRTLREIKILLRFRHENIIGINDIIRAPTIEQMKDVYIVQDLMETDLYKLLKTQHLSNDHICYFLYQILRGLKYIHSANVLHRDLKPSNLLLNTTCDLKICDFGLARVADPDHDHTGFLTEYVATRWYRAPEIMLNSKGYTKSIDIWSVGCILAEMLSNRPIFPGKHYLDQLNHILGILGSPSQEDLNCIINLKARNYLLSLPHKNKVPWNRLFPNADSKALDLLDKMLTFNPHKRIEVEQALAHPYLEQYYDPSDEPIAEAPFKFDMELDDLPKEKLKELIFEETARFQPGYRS
EXPERIMENTAL ENDPOINT: IC50

{"MOLECULE": "Cc1nc(C)c(-c2ccnc(Nc3cccc([N+](=O)[O-])c3)n2)s1 [Compound 12]", "RESULT VALUE": "> 20 µM"}
{"MOLECULE": "Cc1nc(C)c(-c2ccnc(Nc3ccc(F)cc3)n2)s1 [Compound 21]", "RESULT VALUE": "2.5 µM"}
{"MOLECULE": "Cc1nc(C)c(-c2ccnc(Nc3ccc(Cl)cc3)n2)s1 [Compound 6]", "RESULT VALUE": "> 20 µM"}

----------
# ASSAYED TARGET: CDK2/cyclin E (Homo sapiens, UniProt P24941)
# Construct: His; made in house; host or cells: Sf9 insect cells (baculovirus)
# ASSAY PROTOCOL: CDK2/cyclin E kinase assay (GST-Rb phosphorylation);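 note: enzyme source: His-tagged CDK2/cyclin E co-expressed in Sf9 insect cells via baculovirus, then purified by metal-chelate chromatography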
# Format: biochemical
# SETUP CONDITIONS: Table 2, further results for CDK2/cyclin E inhibition; read-out: CDK2/cyclin E
pIC50: −log10 of the molar value.

{"STRUCTURE NOTATION": "CNc1nc(C)c(-c2ccnc(Nc3ccc(C(F)(F)F)cc3)n2)s1", "pIC50": 5.92}
{"STRUCTURE NOTATION": "Cc1nc(N)sc1-c1ccnc(Nc2ccc(O)cc2)n1", "pIC50": 5.85}
{"STRUCTURE NOTATION": "CCOC(=O)c1ccc(Nc2nccc(-c3sc(NC)nc3C)n2)cc1Cl", "pIC50": 7.00}
{"STRUCTURE NOTATION": "Cc1nc(C)c(-c2ccnc(Nc3ccc(C)c(Cl)c3)n2)s1", "pIC50": 6.12}
{"STRUCTURE NOTATION": "CNc1nc(C)c(-c2ccnc(Nc3ccc(Cl)cc3)n2)s1", "pIC50": 7.10}
{"STRUCTURE NOTATION": "Cc1nc(C)c(-c2ccnc(Nc3ccc(C(=O)O)cc3)n2)s1", "pIC50": 6.15}
{"STRUCTURE NOTATION": "Cc1nc(C)c(-c2ccnc(Nc3ccc(F)c(F)c3)n2)s1", "pIC50": 6.30}
{"STRUCTURE NOTATION": "CNc1nc(C)c(-c2ccnc(Nc3cccc([N+](=O)[O-])c3)n2)s1", "pIC50": 6.10}
{"STRUCTURE NOTATION": "Cc1nc(C)c(-c2ccnc(Nc3ccc(C#N)cc3)n2)s1", "pIC50": 7.52}
{"STRUCTURE NOTATION": "CCN(CC)CCOCc1cccc(Nc2nccc(-c3sc(C)nc3C)n2)c1", "pIC50": 6.15}
{"STRUCTURE NOTATION": "COc1cccc(Nc2nccc(-c3sc(C)nc3C)n2)c1", "pIC50": 6.40}
{"STRUCTURE NOTATION": "CCNc1nc(C)c(-c2ccnc(Nc3ccc(F)cc3)n2)s1", "pIC50": 6.70}
{"STRUCTURE NOTATION": "CNc1nc(C)c(-c2ccnc(Nc3ccc(Br)cc3)n2)s1", "pIC50": 6.89}
{"STRUCTURE NOTATION": "Cc1nc(C)c(-c2ccnc(Nc3cccc(C#N)c3)n2)s1", "pIC50": 7.70}
{"STRUCTURE NOTATION": "Cc1nc(C)c(-c2ccnc(Nc3ccc(O)c([N+](=O)[O-])c3)n2)s1", "pIC50": 6.68}
{"STRUCTURE NOTATION": "CNc1nc(C)c(-c2ccnc(Nc3ccc(F)cc3)n2)s1", "pIC50": 7.22}
{"STRUCTURE NOTATION": "Cc1nc(C)c(-c2cc(Br)nc(Nc3cccc([N+](=O)[O-])c3)n2)s1", "pIC50": 8.00}
{"STRUCTURE NOTATION": "Cc1nc(C)c(-c2ccnc(Nc3ccc(O)c(Cl)c3)n2)s1", "pIC50": 6.22}
{"STRUCTURE NOTATION": "CNc1nc(C)c(-c2ccnc(Nc3ccc(I)cc3)n2)s1", "pIC50": 6.05}
{"STRUCTURE NOTATION": "COCCOC(=O)c1cc(Nc2nccc(-c3sc(C)nc3C)n2)ccc1F", "pIC50": 5.96}
{"STRUCTURE NOTATION": "CNc1nc(C)c(-c2ccnc(Nc3cccc(Cl)c3)n2)s1", "pIC50": 6.10}
{"STRUCTURE NOTATION": "COc1ccc(Nc2nccc(-c3sc(C)nc3C)n2)cc1Cl", "pIC50": 7.22}
